Reference for the values: patent US8114968

Target: murine MMP-12 (mouse, UniProt P34960 110-473, limits assumed)
Sequence (P34960 110-473 limits assumed): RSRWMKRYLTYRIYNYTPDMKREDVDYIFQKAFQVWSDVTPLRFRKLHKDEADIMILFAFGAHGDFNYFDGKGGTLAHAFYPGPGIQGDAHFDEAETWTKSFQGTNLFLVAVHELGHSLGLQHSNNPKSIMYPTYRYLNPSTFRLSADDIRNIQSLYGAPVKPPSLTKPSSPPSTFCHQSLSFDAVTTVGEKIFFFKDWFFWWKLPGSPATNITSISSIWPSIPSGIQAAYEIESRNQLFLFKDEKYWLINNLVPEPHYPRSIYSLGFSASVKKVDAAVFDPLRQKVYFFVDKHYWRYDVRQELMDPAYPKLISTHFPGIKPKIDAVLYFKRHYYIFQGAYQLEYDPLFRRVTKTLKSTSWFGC
Assay: cell-based or functional assay
Parameter Measured: IC50 m

Record 539B-M0065-E12 (Fab, V domains shown) VH: EVQLLESGGGLVQPGGSLRLSCAASGFTFSWYNMHWVRQAPGKGLEWVSGISPSGGNTMYADSVKGRFTISRDNSKNTLYLQMNSLRAEDTAVYYCAKDIRGAYSSGLFDYWGRGTLVTVSS VL: DIQMTQSPSSLSASVGDRVTITCRANQSIYTYLNWYQQKPGKAPELLIYAASSLQSGVPSRFSGSGSGTDFTLTISSLQPEDFATYYCQQAGIFGQGTKLEIK , field IC50 m: < 10 nM (not printed; inferred)

Data point: 539B-M0069-C02 (Fab, V domains shown) VH: EVQLLESGGGLVQPGGSLRLSCAASGFTFSYYNMHWVRQAPGKGLEWVSGIGPSGGGTLYADSVKGRFTISRDNSKNTLYLQMNSLRAEDTAVYYCAKDIRGAYSSGLFDYWGRGTLVTVSS VL: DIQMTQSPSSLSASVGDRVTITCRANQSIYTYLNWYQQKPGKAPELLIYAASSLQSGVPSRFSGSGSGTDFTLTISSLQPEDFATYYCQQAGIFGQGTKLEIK ; IC50 m = ~10 nM (not printed; inferred)

For reference, reported IC50 m for 539B-M0063-B01 (Fab, V domains shown) VH: EVQLLESGGGLVQPGGSLRLSCAASGFTFSWYWMGWVRQAPGKGLEWVSSISPSGGYTFYADSVKGRFTISRDNSKNTLYLQMNSLRAEDTAVYYCAKDIRGAYSSGLFDYWGRGTLVTVSS VL: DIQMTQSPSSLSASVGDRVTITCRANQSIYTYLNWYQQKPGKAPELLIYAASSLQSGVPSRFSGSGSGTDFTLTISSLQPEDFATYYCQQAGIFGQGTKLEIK stands at > 10 nM (not printed; inferred)

539B-M0071-H03 (Fab, V domains shown) VH: EVQLLESGGGLVQPGGSLRLSCAASGFTFSPYWMHWVRQAPGKGLEWVSGIGPSGGPTFYADSIKGRFTISRDNSKNTLYLQMNSLRAEDTAVYYCAKDIRGAYSSGLFDYWGRGTLVTVSS VL: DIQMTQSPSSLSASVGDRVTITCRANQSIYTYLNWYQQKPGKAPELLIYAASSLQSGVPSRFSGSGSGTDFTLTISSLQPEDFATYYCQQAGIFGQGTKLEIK yielded IC50 m of < 10 nM (not printed; inferred)

The value of IC50 m measured for the binder 539B-M0067-F06 (Fab, V domains shown) VH: EVQLLESGGGLVQPGGSLRLSCAASGFTFSWYNMSWVRQAPGKGLEWVSRISPSGGDTGYADSVKGRFTISRDNSKNTLYLQMNSLRAEDTAVYYCAKDIRGAYSSGLFDYWGRGTLVTVSS VL: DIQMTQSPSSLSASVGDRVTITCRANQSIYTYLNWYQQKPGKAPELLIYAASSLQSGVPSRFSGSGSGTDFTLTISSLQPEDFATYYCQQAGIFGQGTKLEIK turned out to be < 10 nM (not printed; inferred)
